Hello, the source for this data is paper PMC3146558, in case you need it.

Consider the following compounds; for each one, report its IC50.
# System: morphine induced cAMP overshoot
# assay-notes: Inhibition of morphine-induced cAMP overshoot, qHTS of LOPAC library
# Format: cell-based
# condition-context: 18 h, read-out: Potency
Structures can show the parent of a compound that is named as a salt.
One number for each entry, in µM.

CCCN(CCC)CCc1cccc2c1CC(=O)N2 [Ropinirole hydrochloride]	18.4
CCCCCCCCCCCCCCCCCC(=O)NCC(COP(=O)([O-])OCC[N+](C)(C)C)OCC (racemic)	18.4
C=CCN1CC[C@]23c4c5ccc(O)c4O[C@H]2/C(=N/NC(=O)c2ccccc2)CC[C@@]3(O)[C@H]1C5 [Naloxone benzoylhydrazone]	0.41

We now examine a further compound.
I'd like to know its IC50. The compound in question is C=C1C(=O)O[C@H]2[C@H]1CC/C(C)=C/CC[C@@]1(C)O[C@@H]21 [Parthenolide]
16.4
